src = ChEMBL document CHEMBL1148888

For each entry below, report its MIC value.
Test system: Staphylococcus aureus
Test: Antibacterial activity against methicillin-resistant Staphylococcus aureus MF490 by agar dilution method
Format: functional
Conditions: Staphylococcus aureus; read-out: MIC
Write down the value, and be sure its unit follows.

NCC[C@H](O)C(=O)N[C@@H]1C[C@H](N)[C@@H](O[C@H]2O[C@H](CN)CC[C@H]2N)[C@@H](N)[C@H]1O[C@H]1O[C@H](CO)[C@@H](O)[C@H](N)[C@H]1O	2 µg/mL
NCC[C@H](O)C(=O)N[C@@H]1C[C@H](N)[C@@H](O[C@H]2O[C@H](CN)CC[C@H]2N)[C@@H](NCc2ccccc2)[C@H]1O[C@H]1O[C@H](CO)[C@@H](O)[C@H](N)[C@H]1O	8 µg/mL
NCC[C@H](O)C(=O)N[C@@H]1C[C@H](N)[C@@H](O[C@H]2O[C@H](CN)CC[C@H]2N)[C@@H](Cl)[C@H]1O[C@H]1O[C@H](CO)[C@@H](O)[C@H](N)[C@H]1O	3.13 µg/mL

Problem: So what does the record say about MIC for `CN[C@H]1[C@@H](O[C@H]2O[C@H](CO)[C@@H](O)[C@H](N)[C@H]2O)[C@H](NC(=O)[C@@H](O)CCN)C[C@H](N)[C@H]1O[C@H]1O[C@H](CN)CC[C@H]1N` ?
Solution: 4 µg/mL

====

For each entry below, report its MIC value.
Test system: Pseudomonas aeruginosa
Assay: Antibacterial activity against Pseudomonas aeruginosa GN315 by agar dilution method
Format: functional
Details: Pseudomonas aeruginosa; read-out: MIC
Give bare numbers, in µg/mL.

Would you please look over these solved cases?
CN[C@H]1[C@@H](O[C@H]2O[C@H](CO)[C@@H](O)[C@H](N)[C@H]2O)[C@H](NC(=O)[C@@H](O)CCN)C[C@H](N)[C@H]1O[C@H]1O[C@H](CN)CC[C@H]1N	128
NCC[C@H](O)C(=O)N[C@@H]1C[C@H](N)[C@@H](O[C@H]2O[C@H](CN)CC[C@H]2N)[C@@H](N)[C@H]1O[C@H]1O[C@H](CO)[C@@H](O)[C@H](N)[C@H]1O	16

Problem: So what does the record say about MIC for NCC[C@H](O)C(=O)N[C@@H]1C[C@H](N)[C@@H](O[C@H]2O[C@H](CN)CC[C@H]2N)C(O)[C@H]1O[C@H]1O[C@H](CO)[C@@H](O)[C@H](N)[C@H]1O (single isomer, unassigned; form 1) [ARBEKACIN] ?
Solution: 8

====

Test system: Staphylococcus aureus
Assay: Antibacterial activity against methicillin-resistant Staphylococcus aureus MF490 by agar dilution method
Type: functional
Settings: Staphylococcus aureus; read-out: MIC
experimental-endpoint: MIC
Write down the value, and be sure its unit follows.

Would you please look over these solved cases?
CN[C@@H]1[C@@H](O)[C@@H](O[C@@H]2[C@H](O)[C@H](O[C@H]3O[C@H](CN)CC[C@H]3N)[C@@H](N)C[C@H]2NC(=O)[C@@H](O)CCN)O[C@H](CO)[C@H]1O	4 µg/mL
CN(C)[C@H]1[C@@H](O[C@H]2O[C@H](CO)[C@@H](O)[C@H](N)[C@H]2O)[C@H](NC(=O)[C@@H](O)CCN)C[C@H](N)[C@H]1O[C@H]1O[C@H](CN)CC[C@H]1N	32 µg/mL

Now for the molecule whose MIC we want.
Problem: // map `NCCN[C@H]1[C@@H](O[C@H]2O[C@H](CO)[C@@H](O)[C@H](N)[C@H]2O)[C@H](NC(=O)[C@@H](O)CCN)C[C@H](N)[C@H]1O[C@H]1O[C@H](CN)CC[C@H]1N` to recorded MIC (system: Staphylococcus aureus)
Solution: 2 µg/mL
